Source of measurements: patent US20250360145A1

Biological target: UniProt P09619
Sequence (P09619 33-1106): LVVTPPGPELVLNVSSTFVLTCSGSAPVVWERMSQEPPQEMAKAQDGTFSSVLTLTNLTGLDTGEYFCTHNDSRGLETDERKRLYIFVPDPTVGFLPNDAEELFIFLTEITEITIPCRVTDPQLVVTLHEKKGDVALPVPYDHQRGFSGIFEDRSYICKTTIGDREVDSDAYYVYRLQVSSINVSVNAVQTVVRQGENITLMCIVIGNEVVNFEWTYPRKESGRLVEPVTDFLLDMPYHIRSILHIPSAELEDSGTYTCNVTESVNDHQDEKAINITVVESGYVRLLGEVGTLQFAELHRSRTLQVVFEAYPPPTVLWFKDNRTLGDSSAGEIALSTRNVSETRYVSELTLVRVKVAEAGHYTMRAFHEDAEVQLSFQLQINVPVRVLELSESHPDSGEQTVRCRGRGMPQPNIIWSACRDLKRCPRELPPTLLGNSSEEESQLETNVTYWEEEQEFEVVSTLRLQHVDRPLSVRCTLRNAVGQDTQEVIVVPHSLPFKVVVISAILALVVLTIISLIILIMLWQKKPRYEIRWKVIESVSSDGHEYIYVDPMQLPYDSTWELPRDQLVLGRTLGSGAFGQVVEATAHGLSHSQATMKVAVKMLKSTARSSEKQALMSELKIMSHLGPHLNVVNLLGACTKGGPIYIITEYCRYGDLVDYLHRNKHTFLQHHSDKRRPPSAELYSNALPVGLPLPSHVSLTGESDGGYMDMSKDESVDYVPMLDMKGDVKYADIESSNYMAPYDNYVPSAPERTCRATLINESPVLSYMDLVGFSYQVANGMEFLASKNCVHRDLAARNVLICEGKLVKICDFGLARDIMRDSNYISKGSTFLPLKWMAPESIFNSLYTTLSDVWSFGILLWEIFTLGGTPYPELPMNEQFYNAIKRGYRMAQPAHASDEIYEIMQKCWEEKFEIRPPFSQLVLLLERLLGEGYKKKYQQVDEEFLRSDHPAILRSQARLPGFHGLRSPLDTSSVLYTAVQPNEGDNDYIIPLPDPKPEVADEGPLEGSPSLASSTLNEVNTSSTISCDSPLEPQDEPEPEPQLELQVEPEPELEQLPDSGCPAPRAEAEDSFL
Assay: Biochemical HTRF kinase assay, PDGFRβ;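 also: kinase reaction with substrate/ATP mix run 1 h at room temperature in 384-well format, HTRF signal detection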
Conditions: recombinant human protein; read-out: PDGFR-1β IC50
The entries below come with measured IC50 values attached.
Write the number in nM without appending the unit.

Use these answered entries as a reference point.
COc1cnc2c(Cc3cnc(OCc4cc(C(C)C)no4)c(OC)c3)ccnc2c1; 158
[2H]C([2H])([2H])Oc1ccc(COc2ncc(Cc3ccnc4cc(OC)cnc34)cc2OC)nc1; 947

Query molecule follows.
Problem: Entry COc1cnc2c(Cc3cnc(OCc4cc5n(n4)CC4CC54)c(OC)c3)ccnc2c1 (stereo not shown) has what IC50?
Solution: 839

---

Target: CSF-1R (Homo sapiens (Human))
Sequence (P07333 20-972): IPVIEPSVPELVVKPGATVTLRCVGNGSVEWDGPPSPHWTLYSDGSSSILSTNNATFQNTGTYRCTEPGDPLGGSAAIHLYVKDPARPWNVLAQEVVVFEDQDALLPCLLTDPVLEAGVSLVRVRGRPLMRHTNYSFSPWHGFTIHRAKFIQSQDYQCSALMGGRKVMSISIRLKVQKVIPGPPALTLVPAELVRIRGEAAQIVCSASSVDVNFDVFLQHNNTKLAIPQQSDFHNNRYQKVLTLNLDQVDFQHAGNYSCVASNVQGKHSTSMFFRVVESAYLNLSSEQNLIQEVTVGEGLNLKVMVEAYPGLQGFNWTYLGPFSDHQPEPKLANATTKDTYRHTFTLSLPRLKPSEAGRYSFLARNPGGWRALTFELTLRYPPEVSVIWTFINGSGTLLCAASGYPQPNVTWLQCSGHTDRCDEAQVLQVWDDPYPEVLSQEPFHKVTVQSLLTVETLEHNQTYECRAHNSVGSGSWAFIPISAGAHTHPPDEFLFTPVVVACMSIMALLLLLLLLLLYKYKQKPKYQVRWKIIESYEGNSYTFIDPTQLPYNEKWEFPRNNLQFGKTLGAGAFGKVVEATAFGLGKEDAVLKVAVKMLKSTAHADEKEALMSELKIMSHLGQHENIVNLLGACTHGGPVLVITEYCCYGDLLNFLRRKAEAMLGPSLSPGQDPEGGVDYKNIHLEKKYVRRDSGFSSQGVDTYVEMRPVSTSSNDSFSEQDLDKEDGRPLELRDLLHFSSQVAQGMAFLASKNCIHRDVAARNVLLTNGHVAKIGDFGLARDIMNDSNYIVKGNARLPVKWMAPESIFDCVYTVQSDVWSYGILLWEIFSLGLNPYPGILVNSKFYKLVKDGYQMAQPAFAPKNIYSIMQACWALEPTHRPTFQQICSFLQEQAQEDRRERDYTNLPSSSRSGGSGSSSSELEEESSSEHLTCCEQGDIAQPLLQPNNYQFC
Assay: Biochemical HTRF kinase assay, CSF-1R;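 also: enzyme incubated with inhibitor plus a substrate and ATP mix for one hour at room temperature before HTRF detection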
Conditions: Table 2; recombinant human CSF-1R
# note: exactly 0.01 µM is not below, so it is N; use Y for IC50 strictly under it

Problem: Regarding COc1cnc2c(Cc3cnc(OCc4ccc(C5CC5)cn4)c(OC(F)F)c3)ccnc2c1 [Example 69] , kindly confirm whether its IC50 is beneath 0.01 µM.
Solution: N

Problem: Bench note: check whether COc1ccc(COc2ncc(Cc3ccnc4cc(N5CCNCC5)cnc34)cc2OC)nc1 [Example 135] shows IC50 below 0.01 µM
Solution: N

Problem: # TODO verify IC50 < 0.01 µM strictly for this compound: COc1ccc(COc2ncc(Cc3ccnc4cc(OC)cnc34)cc2OC)cc1 [Example 38]
Solution: Y

Problem: Record COc1cnc2c(Cc3cnc(OCc4ccc5cnn(C)c5n4)c(OC)c3)ccnc2c1 [Example 122] : is its IC50 strictly below 0.01 µM?
Solution: N

---

Test: In vivo PK study (plasma and brain exposure)
Design: species or system CD1 mouse
Conditions: male, serum, iv; CD1 mouse, i.v. 2 mg/kg; read-out: IV-2mpk VSS
Experimental: The PK profiles were determined in CD1 mouse, and all the procedures and protocols were in accordance with the National Institutes of Health Guide for the Care and Use of Laboratory Animals. The CD1 mouse were purchased from JH Laboratory Animal Co. LTD. The CD1 mouse (23-30 g, 6-8 weeks, male) were randomized and divided into five groups consisting of 21 mouse per group. […] Then, the blood samples and brain samples were further analyzed by LC-MS/MS (Triple Quad 6500+).
Recorded Vd, one value per entry.
The figure you give is taken to be in L/kg; do not add the unit.

COc1ccc(COc2ncc(Cc3ccnc4cc(OC)cnc34)cc2OC)nc1; 0.955
COc1ccc(COc2ncc(Cc3ccnc4cc(N5CCN(C)CC5)cnc34)cc2OC)nc1; 9.54

Problem: // returns reported Vd for input COc1ccc(COc2ncc(Cc3ccnc(-c4cnn(C)c4)n3)cc2OC)nc1 [Comparator A, reference compound]
Solution: 0.635

Problem: Which Vd is listed for COc1cnc2c(Cc3cnc(OCc4cc5n(n4)CCOC5)c(OC)c3)ccnc2c1 ?
Solution: 0.461

Problem: Vd lookup needed for CNC(=O)c1cc(Oc2ccc3nc(N[C@@H]4CCCC[C@H]4O)sc3c2)ccn1 [BLZ945, reference compound] , thanks.
Solution: 1.29

Problem: // lookup Vd for COc1cnc2c(Cc3cnc(OCc4cc5n(n4)C[C@H](OC)C5)c(OC)c3)ccnc2c1
Solution: 0.274

Problem: What does the record list as Vd for COc1ncc(F)cc1CNc1ccc(Cc2c[nH]c3ncc(C)cc23)c(F)n1 [PLX5622, reference compound] ?
Solution: 0.98
